These entries and their values trace back to ChEMBL document CHEMBL4041509.

The reader will find reported fold change (FC) values listed item by item below.
- target.of.assay: UniProt:P08183
- assay.text: Inhibition of ABCB1 (unknown origin) expressed in Flp-In-293 cells assessed as increase in calcein-AM uptake at 2.5 uM preincubated for 30 mins followed by calcein-AM addition measured after 30 mins by fluorescence spectrometric method relative to control
- Type: cell-based
- condition.description: 0.5 h

[ask] Form field: reported fold change (FC) of `CC(=O)Oc1cc(-c2ccc3c(c2)OCO3)cc2oc(N)c(-c3cccs3)c12`
[reply] 0.96

====

- target.of.assay: ATP-dependent translocase ABCB1 (Homo sapiens)
- Sequence (P08183 whole entry): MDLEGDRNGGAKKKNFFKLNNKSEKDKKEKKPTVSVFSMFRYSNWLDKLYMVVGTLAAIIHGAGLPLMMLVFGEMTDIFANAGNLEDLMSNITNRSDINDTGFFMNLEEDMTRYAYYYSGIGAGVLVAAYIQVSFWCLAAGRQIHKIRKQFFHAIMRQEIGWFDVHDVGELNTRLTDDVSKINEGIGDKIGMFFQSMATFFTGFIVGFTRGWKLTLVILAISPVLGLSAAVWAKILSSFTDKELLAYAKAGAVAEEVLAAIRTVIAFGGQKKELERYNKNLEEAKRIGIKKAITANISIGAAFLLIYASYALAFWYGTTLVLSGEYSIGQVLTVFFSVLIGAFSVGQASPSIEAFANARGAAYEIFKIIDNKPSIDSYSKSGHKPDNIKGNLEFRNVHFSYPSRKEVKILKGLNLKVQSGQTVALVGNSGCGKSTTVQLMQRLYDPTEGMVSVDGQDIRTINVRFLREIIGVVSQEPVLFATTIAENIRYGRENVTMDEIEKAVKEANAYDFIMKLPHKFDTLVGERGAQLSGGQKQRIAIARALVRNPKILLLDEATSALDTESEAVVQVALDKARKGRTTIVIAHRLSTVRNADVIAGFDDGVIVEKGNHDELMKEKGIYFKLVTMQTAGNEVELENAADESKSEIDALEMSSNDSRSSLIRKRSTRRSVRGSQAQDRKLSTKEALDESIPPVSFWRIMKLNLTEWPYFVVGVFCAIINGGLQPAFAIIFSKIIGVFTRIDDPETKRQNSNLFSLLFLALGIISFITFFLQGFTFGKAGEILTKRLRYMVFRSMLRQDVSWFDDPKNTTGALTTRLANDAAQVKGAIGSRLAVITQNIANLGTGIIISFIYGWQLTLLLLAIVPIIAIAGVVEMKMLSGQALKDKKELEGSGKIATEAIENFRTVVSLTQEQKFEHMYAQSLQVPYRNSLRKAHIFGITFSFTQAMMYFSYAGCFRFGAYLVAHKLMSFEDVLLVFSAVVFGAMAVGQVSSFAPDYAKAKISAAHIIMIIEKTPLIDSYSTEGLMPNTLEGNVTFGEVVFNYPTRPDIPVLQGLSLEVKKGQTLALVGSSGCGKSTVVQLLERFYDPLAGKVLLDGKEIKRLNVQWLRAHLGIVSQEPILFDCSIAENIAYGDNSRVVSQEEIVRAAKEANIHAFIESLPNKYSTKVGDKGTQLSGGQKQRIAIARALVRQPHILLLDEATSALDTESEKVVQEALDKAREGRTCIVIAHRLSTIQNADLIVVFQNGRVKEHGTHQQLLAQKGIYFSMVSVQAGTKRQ
- assay.text: Inhibition of ABCB1 (unknown origin) expressed in Flp-In-293 cells assessed as increase in calcein-AM uptake at 5 uM preincubated for 30 mins followed by calcein-AM addition measured after 30 mins by fluorescence spectrometric method relative to control
- Format: cell-based
- condition.description: 0.5 h
Listing of recorded fold change (FC) by entry.
Hey, just send me the number, nothing else.

* COc1ccc(-c2cc(OCCN3CCCC3)c3c(-c4cccs4)c(N)oc3c2)cc1 | 6.78
* COc1ccc(-c2cc(OC(C)=O)c3c(-c4ccccc4)c(N)oc3c2)cc1 | 2.27
* CC(=O)Oc1cc(-c2ccccc2)cc2oc(N)c(-c3cccs3)c12 | 0.98

Now consider the entry below.
[ask] What measured fold change (FC) goes with `COc1ccc(-c2cc(OC(C)=O)c3c(-c4ccc5c(c4)OCO5)c(N)oc3c2)cc1` ?
[reply] 1.48
